# assay.method.text: Suppression of food intake in mice
# Type: in vivo
# condition.context: Mus musculus; male ICR mice, 50 mg/kg oral, given 0.5 hour before feeding; food intake of control animals = 100%; (NS) = not statistically significant; read-out: Food intake (%) 0.5 hour after administration
Reported response vs control in vivo at 50 mg/kg values for a set of molecules
Numeric only. Scale: %

Solved cases below.
| molecule | response vs control in vivo at 50 mg/kg / % |
| --- | --- |
| CNC(C)CSc1ccc(Br)cc1 (centres unmarked) | 70.8 |
| CNC(C)CSc1ccccc1 (centres unmarked) [1-phenylthio-2-methyl-aminopropane, reference compound] | 106 |
| CNC(C)CSc1ccc(F)cc1 (centres unmarked) | 57.9 |

## Input Using the record for CC(N)CSc1ccc(Cl)cc1 (centres unmarked) [1-(4-chlorophenylthio)-2-aminopropane, reference compound] , report its response vs control in vivo at 50 mg/kg.
## Output 69.5

## Input Could you tell me which response vs control in vivo at 50 mg/kg is on file for CNC(C)CSc1ccc(Cl)cc1.O=C(O)/C=C/C(=O)O (centres unmarked) [Example 1, fumarate] ?
## Output 43.2

* * *

# assay.method.text: Suppression of food intake in mice
# Type: in vivo
# condition.context: Mus musculus; male ICR mice, 50 mg/kg oral, given 0.5 hour before feeding; food intake of control animals = 100%; (NS) = not statistically significant; read-out: Food intake (%) 0.5 hour after administration
Where a name gives a salt, the structure may show the parent alone.
reported.endpoint: response vs control in vivo at 50 mg/kg (%)
The reply should contain only the number, in %.

Completed entries (count: 2):
| compound | result.unit | reported |
| --- | --- | --- |
| CCNC(C)CSc1ccc(Cl)cc1 (stereo not drawn) [Example 3, fumarate] | % | 40.7 |
| CC(CSc1ccc(Cl)cc1)NCCO (stereo not drawn) [Example 4, fumarate] | % | 65.9 |

Now turn to the next compound.
## Input Would you kindly share the measured response vs control in vivo at 50 mg/kg for CNC(C)CSc1ccc(Cl)c(Cl)c1 (racemic) ?
## Output 54.9
